IC50 at 48 h for assorted compounds
Assay: GSK_TCAKS: pIC50 HepG2 human cell line viability assay using luminiscence. […] Seeding density was checked to ensure that new mono-layers were not more than 50% confluent at the time of harvesting. Cell suspension was added to 500 mL of the same medium at a final density of 1.2 * 10^5 cells/mL. This cell suspension was dispensed (25 uL, 3000 cells per well) into 384-well clear-bottom plates using a Multidrop Combi dispenser. Prior to addition of the cell suspension, the screening compounds (250 nL) were pre-dispensed into the plates with an Echo liquid handler. Plates were incubated for 48 h at 37C, 5% CO2. After incubation, plates equilibrated at room temperature for 30 min before proceeding to develop the luminescent signal. The signal developer, CellTiter-Glo Reagent, was allowed to equilibrate at room temperature for 30 min and added to the plates (25uL per well) using a Multidrop Combi dispenser. Plates were left for 10 min at room temperature for stabilization and then read using a ViewLux.
Assay type: toxicity, cell-based

Previously resolved entries follow.
compound	IC50 at 48 h
COc1cccc(NS(=O)(=O)c2ccc3ncc(C(=O)NCCC(C)C)c(O)c3c2)c1	31.6 µM
c1ccc2[nH]c(-c3ccc(N4CCCC4)nc3)nc2c1	> 100 µM
Cc1cc(C#N)c([N+](=O)[O-])cc1Br	31.6 µM
COc1ccc(-c2cnc(NC(=O)c3cc(-c4ccccn4)n[nH]3)n2C)cc1	> 100 µM
O=C(CSc1ccc(F)cc1)N[C@@H](Cc1c[nH]cn1)C(=O)NCCc1ccccc1	> 100 µM

Looking for the measured IC50 at 48 h of O=C(Nc1ccccc1C(=O)Nc1ccccn1)c1ccco1 , can you help?
> 100 µM

Looking for the measured IC50 at 48 h of CCCN1CCN(Cc2ccc(S(=O)(=O)Nc3cccc(C)c3)cc2)CC1 , can you help?
> 100 µM

Looking for the measured IC50 at 48 h of O=C(Nc1cccc(F)c1)N1CCC(Oc2cccc(-c3cccnc3)c2)CC1 , can you help?
> 100 µM

Looking for the measured IC50 at 48 h of NC(=O)c1ncc(N[C@@H]2CCCNC2)nc1Nc1cccc(Cl)c1 , can you help?
10 µM

Looking for the measured IC50 at 48 h of Cc1ccccc1CNC(=O)CN(Cc1ccccn1)Cc1ccccn1 , can you help?
> 158 µM

Looking for the measured IC50 at 48 h of CN(C)Cc1ccc(-c2ccc(S(=O)(=O)NCC3CCCO3)c(F)c2)cc1 (stereo unspecified) , can you help?
> 126 µM

====

Tested on: Leishmania donovani
Assay: GSK_TCAKS: pIC50 Leishmania donovani Imaging: Infected Macrophages. Assay plates (384-well) were prepared by adding 250nL of compound to each well. For single shot assay, the final compound concentration was 5 uM. […] Automated image analysis was performed with a script developed on Acapella High Content Imaging and Analysis Software (PerkinElmer). Output: Percent of infected macrophage cells were reported for each well.
Format: functional, organism-based, Homo sapiens
Settings: THP-1
pIC50 for assorted compounds
Friendly reminder that pIC50 comes from taking -log10 of the concentration in mol/L.

mol	assayed_system	pIC50
CN1CCN(c2nc(-c3ccc(Cl)cc3)c3c(N)n(C)nc3n2)CC1	Leishmania donovani	4.40
CNc1nc(C)nc(N2CCc3cc(C(=O)NCc4ccc(-c5cc[nH]n5)cc4Cl)ccc32)n1	Leishmania donovani	6.50
CC(C)S(=O)(=O)c1ccc(-c2cnc(N)c3cc(-c4ccnc(N)n4)ccc23)cc1	Leishmania donovani	5.90

Looking for the measured pIC50 of O=C(Nc1nc2ccccc2[nH]1)c1c(O)c2cccc3c2n(c1=O)CC3 , can you help?
5.70

Looking for the measured pIC50 of CN(Cc1cc2ccccc2s1)c1ncc2c(N)nc(N)nc2n1 , can you help?
4.50

====

Molecular target: Sterol 14-alpha demethylase (Trypanosoma cruzi (strain CL Brener))
Sequence (Q7Z1V1 whole entry): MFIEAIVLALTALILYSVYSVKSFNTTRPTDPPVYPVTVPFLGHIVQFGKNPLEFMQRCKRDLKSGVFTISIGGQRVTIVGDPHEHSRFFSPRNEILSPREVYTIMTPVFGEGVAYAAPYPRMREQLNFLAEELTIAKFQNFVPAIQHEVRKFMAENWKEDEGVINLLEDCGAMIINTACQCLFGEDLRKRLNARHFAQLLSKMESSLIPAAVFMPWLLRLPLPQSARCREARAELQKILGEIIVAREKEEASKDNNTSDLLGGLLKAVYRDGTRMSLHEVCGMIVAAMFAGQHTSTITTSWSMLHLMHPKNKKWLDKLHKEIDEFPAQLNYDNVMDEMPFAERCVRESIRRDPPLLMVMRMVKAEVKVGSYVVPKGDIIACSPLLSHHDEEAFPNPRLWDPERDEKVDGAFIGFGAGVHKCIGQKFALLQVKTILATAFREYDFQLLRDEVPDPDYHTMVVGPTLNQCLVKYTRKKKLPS
Experiment: GSK_TCAKS: pIC50 CYP51 from Trypanosoma cruzi.
pIC50: −log10 of the molar value.
Tick Fulfilled if pIC50 is 5 or greater. Tick Not fulfilled if pIC50 is less than 5.

For orientation, consider the following solved cases.
compound	assayed_system	class_assignment
c1ccc(Nc2nc(-c3ccccn3)cc(N3CCOCC3)n2)cc1	Sterol 14-alpha demethylase (Trypanosoma cruzi (strain CL Brener))	Not fulfilled
O=C(Nc1nc(-c2ccccn2)cs1)N1C[C@H]2C[C@@]2(c2ccccc2)C1	Sterol 14-alpha demethylase (Trypanosoma cruzi (strain CL Brener))	Not fulfilled
CC(C)(C)CC(=O)NCCc1csc(-c2ccc(F)cc2)n1	Sterol 14-alpha demethylase (Trypanosoma cruzi (strain CL Brener))	Not fulfilled
CC(C)(C)C(O)(CCc1ccc(Cl)cc1)Cn1cncn1 (configuration not stated) [TEBUCONAZOLE]	Sterol 14-alpha demethylase (Trypanosoma cruzi (strain CL Brener))	Fulfilled
Cc1nnc(-c2nc(NCc3ccc(Cl)cc3)c3cccnc3c2O)[nH]1	Sterol 14-alpha demethylase (Trypanosoma cruzi (strain CL Brener))	Not fulfilled

Is pIC50 at least 5? Consider N#Cc1cc([N+](=O)[O-])ccc1NC1CCCCCC1
Not fulfilled

Is pIC50 at least 5? Consider O=C1NCCn2ccc(Nc3nc(N[C@H]4CC[C@H](O)CC4)ncc3Cl)c21
Not fulfilled

Is pIC50 at least 5? Consider Cc1cc2nc(N3CC[C@H]3C(N)=O)nc(Nc3cc(C4CC4)[nH]n3)c2s1
Not fulfilled

Is pIC50 at least 5? Consider Cc1nc2c(-c3nc(-c4ccccc4N)n[nH]3)cccn2c1C
Fulfilled

Is pIC50 at least 5? Consider Fc1ccc(Nc2nc(-c3ccccn3)cs2)cc1
Not fulfilled

Is pIC50 at least 5? Consider O=C(Cn1cnc2cc([N+](=O)[O-])ccc2c1=O)NCCc1ccc(Cl)cc1Cl
Not fulfilled

Is pIC50 at least 5? Consider COc1cc(OC)cc(C(NS(=O)(=O)c2ccc(Cl)c(C(F)(F)F)c2)c2nccn2C)c1 (configuration not stated)
Not fulfilled

Is pIC50 at least 5? Consider Cc1nn2c(=O)c3c([nH]c2c1-c1ccc(Cl)cc1)CCCC3
Not fulfilled

Is pIC50 at least 5? Consider Cc1cc(C)nc(N2CCC(N(Cc3cccnc3)C(=O)c3cccc(C#N)c3)CC2)n1
Fulfilled

Is pIC50 at least 5? Consider CCc1cc(C(=O)Nc2nccn2-c2ccccc2)cs1
Not fulfilled

Is pIC50 at least 5? Consider NC(=O)c1ccccc1Nc1nc(NC2CCCCC2)nc2[nH]ccc12
Not fulfilled

Is pIC50 at least 5? Consider O=C(c1cccc(Nc2ncc(-c3ccc4c(c3)OCO4)cn2)c1)N1CCOCC1
Not fulfilled

Is pIC50 at least 5? Consider CC(=O)Nc1ccc(-c2ccnc(Nc3cccc(C#N)c3)n2)cc1
Not fulfilled

Is pIC50 at least 5? Consider COc1cc2c(cc1OC)[C@H]1[C@@H](C)c3ccc(OC)c(OC)c3CN1CC2
Not fulfilled

====

Test: GSK_TCAKS: pIC50 HepG2 human cell line viability assay using luminiscence. […] Seeding density was checked to ensure that new mono-layers were not more than 50% confluent at the time of harvesting. Cell suspension was added to 500 mL of the same medium at a final density of 1.2 * 10^5 cells/mL. This cell suspension was dispensed (25 uL, 3000 cells per well) into 384-well clear-bottom plates using a Multidrop Combi dispenser. Prior to addition of the cell suspension, the screening compounds (250 nL) were pre-dispensed into the plates with an Echo liquid handler. Plates were incubated for 48 h at 37C, 5% CO2. After incubation, plates equilibrated at room temperature for 30 min before proceeding to develop the luminescent signal. The signal developer, CellTiter-Glo Reagent, was allowed to equilibrate at room temperature for 30 min and added to the plates (25uL per well) using a Multidrop Combi dispenser. Plates were left for 10 min at room temperature for stabilization and then read using a ViewLux.
Assay type: toxicity, cell-based
IC50 at 48 h for assorted molecules

Previously resolved entries follow.
molecule	result
O=C(c1ccc(Cl)cc1)c1ccc(OC(=O)N2CCOCC2)cc1	> 100 µM
Cc1c(CNC(=O)c2ccc(Cn3cc(Cl)c([N+](=O)[O-])n3)cc2)cnn1C	> 100 µM
CC(C)(C)C(O)(CCc1ccc(Cl)cc1)Cn1cncn1 (stereo unspecified)	> 100 µM
c1ccc(-c2nc(NC3CCCC3)c3ccccc3n2)nc1	15.8 µM
CCN(Cc1ccncc1)Cc1ccc(NC(=O)c2cc(-c3ccc(F)cc3)n[nH]2)cc1	> 100 µM

Then there is this molecule:
Looking for the measured IC50 at 48 h of CC(C)(C)Nc1nc(-c2ccccn2)nc2ccccc12 , can you help?
20 µM

====

Test: GSK_TCAKS: pIC50 HepG2 human cell line viability assay using luminiscence. […] Seeding density was checked to ensure that new mono-layers were not more than 50% confluent at the time of harvesting. Cell suspension was added to 500 mL of the same medium at a final density of 1.2 * 10^5 cells/mL. This cell suspension was dispensed (25 uL, 3000 cells per well) into 384-well clear-bottom plates using a Multidrop Combi dispenser. Prior to addition of the cell suspension, the screening compounds (250 nL) were pre-dispensed into the plates with an Echo liquid handler. Plates were incubated for 48 h at 37C, 5% CO2. After incubation, plates equilibrated at room temperature for 30 min before proceeding to develop the luminescent signal. The signal developer, CellTiter-Glo Reagent, was allowed to equilibrate at room temperature for 30 min and added to the plates (25uL per well) using a Multidrop Combi dispenser. Plates were left for 10 min at room temperature for stabilization and then read using a ViewLux.
Format: toxicity, cell-based
experimental_endpoint: IC50 at 48 h

compound	result
O=C(c1cccc(Nc2ncc(-c3ccc4c(c3)OCO4)cn2)c1)N1CCOCC1	> 126 µM
COCc1cc(Nc2ccc(Cl)cc2)nc(-c2ccccn2)n1	12.6 µM
CC(=O)Nc1nc(-c2cc(C)ccc2C)c(C)s1	> 100 µM
COc1ccccc1-n1c(SCC(=O)Nc2ccc3c(c2)OCO3)nc2c(c1=O)SCC2	> 100 µM
Cc1[nH]nc(C(F)(F)F)c1NC(=O)CCn1cc(Cl)c([N+](=O)[O-])n1	> 100 µM

Looking for the measured IC50 at 48 h of CS(=O)(=O)N[C@H]1CC[C@H](Nc2ncc(Br)c(Nc3ccccc3C(N)=O)n2)CC1 , can you help?
> 100 µM

Looking for the measured IC50 at 48 h of Cc1cc(Oc2cc(Cl)c(Cl)cc2Cl)n2ncnc2n1 , can you help?
31.6 µM

Looking for the measured IC50 at 48 h of O=C1NCc2cccc(Nc3nc(N[C@H]4CC[C@H](O)CC4)ncc3Br)c21 , can you help?
> 100 µM

Looking for the measured IC50 at 48 h of O=C(NCCc1ccccn1)C(c1cn[nH]c1)N1CCN(c2ccc(Cl)c(Cl)c2)CC1 (stereo not given) , can you help?
> 100 µM

Looking for the measured IC50 at 48 h of O=C(Nc1ccc(Br)c(Cl)c1)Nc1ccc2c(c1)OCO2 , can you help?
> 100 µM
